# Protocol Text: Apparent permeability in human Caco-2 cells incubated for 180 mins by LC-MS/MS method
# Format: ADME, cell-based
Starred links: 1 amine or outer side, 2 acyl side, 3 side chain; linkers in the order of their positions; H or OH if unused. Positions of bridges follow the written chain, without caps; N, C: chain ends. Non-standard residues stand in square brackets, D forms with d. Residues, ends and D or L forms follow the SMILES beside them. *: point of attachment. hPhe(3-Cl-4-CF3) = N[C@@H](CCc1ccc(C(F)(F)F)c(Cl)c1)C(=O)O; X2 = CN([C@@H](CC(=O)[*:2])C(=O)n1cccc1)[*:1]; NMePhe(4-Cl) = CN[C@@H](Cc1ccc(Cl)cc1)C(=O)O; NMeAla(cPent) = CN[C@@H](CC1CCCC1)C(=O)O; Phe(3-Cl) = N[C@@H](Cc1cccc(Cl)c1)C(=O)O; NMeCha = CN[C@@H](CC1CCCCC1)C(=O)O; NMeF = CN[C@@H](Cc1ccccc1)C(=O)O; NMeI = CC[C@H](C)[C@H](NC)C(=O)O; NMeD = CN[C@@H](CC(=O)O)C(=O)O; NMeV = CN[C@H](C(=O)O)C(C)C; NMeA = CN[C@@H](C)C(=O)O; Piperidide = C1CCN(*)CC1; Ac5c = NC1(C(=O)O)CCCC1; Sar = CNCC(=O)O
Quantity Kind: Papp at 3 h (×10⁻⁶ cm/s)
Field: numeric (×10⁻⁶ cm/s). Do not append units.

Form: molecule = CC[C@H](C)[C@@H]1NC(=O)[C@H](C)N(C)C(=O)C[C@@H](C(=O)n2cccc2)N(C)C(=O)[C@H]([C@@H](C)CC)N(C)C(=O)[C@H](Cc2ccccc2)N(C)C(=O)[C@H](Cc2ccccc2)NC(=O)[C@H](Cc2cccc(Cl)c2)NC(=O)CN(C)C(=O)[C@H](Cc2ccc(Cl)cc2)N(C)C(=O)CN(C)C(=O)CN(C)C1=O (cyclo(F[NMeF][NMeI][X2][NMeA]I[Sar][Sar][NMePhe(4-Cl)][Sar][Phe(3-Cl)])) ; Papp at 3 h = 0.09

Form: molecule = CC[C@H](C)[C@@H]1NC(=O)[C@H](CC2CCCC2)N(C)C(=O)C[C@@H](C(=O)N2CCCCC2)N(C)C(=O)[C@H](C(C)C)N(C)C(=O)C2(CCCC2)NC(=O)[C@@H]2CCCN2C(=O)[C@H](CCc2ccc(C(F)(F)F)c(Cl)c2)NC(=O)CN(C)C(=O)[C@H](CC2CCCCC2)N(C)C(=O)CN(C)C(=O)CN(C)C1=O ([NMeAla(cPent)]I[Sar][Sar][NMeCha][Sar][hPhe(3-Cl-4-CF3)]P[Ac5c][NMeV][NMeD]-Piperidide; lactam N-11) ; Papp at 3 h = 0.41
